Where do these numbers come from? They come from patent US20160287687A1.

Please go through the items and note down their peptide exchange yield.
- target.system: T1, HLA-A*02:01 (human)
- T1 construct: MHC monomers first loaded with a UV-sensitive peptide (not identified) that is cleaved by UV light and exchanged for the test peptide; captured on streptavidin plates, detected with anti-β2m; also called peptide-receptive MHC molecules; MHC class I
- assay.text: UV-ligand exchange + anti-b2m ELISA; peptide exchange yield grade (+ >=10%, ++ >=20%, +++ >=50, ++++ >=75%)

In the examples that follow, each entry is paired with its recorded peptide exchange yield.
>  <binder>
ILIKHLVKV (source gene ARHGAP42) [ILIKHLVKV (SEQ ID NO: 15)]

>  <peptide exchange yield>
20 to 50%

$$$$
>  <binder>
RLLGEVQAL (source gene HSF4) [RLLGEVQAL (SEQ ID NO: 3)]

>  <peptide exchange yield>
20 to 50%

$$$$

Could I get peptide exchange yield for every one of these entries?
1. ILHHKVYDL (source gene CYB5A) [ILHHKVYDL (SEQ ID NO: 94)]
2. FIADVVEKI (source genes HTRA1, HTRA3) [FIADVVEKI (SEQ ID NO: 33)]
3. TLLKTIIKV (source gene CC2D2A) [TLLKTIIKV (SEQ ID NO: 66)]
4. ALADLDELLIRA (source gene HSPG2) [ALADLDELLIRA (SEQ ID NO: 105)]
5. SILDAVQRV (source gene PXDNL) [SILDAVQRV (SEQ ID NO: 52)]

Result:
20 to 50%
20 to 50%
20 to 50%
50 to 75%
20 to 50%
